Value source: PubChem BioAssay (NCI)

Overview of reported TGI across a group of compounds:
- System: SF-295 CNS
- experiment: NCI tumour cell line growth inhibition, 48 h
observedProperty: TGI

O=C(/C=C/c1ccc(Br)cc1)c1ccc(NCc2nc3ccccc3[nH]2)cc1 = > 46.3 µM
CO/C(=N\N=Cc1ccccc1)c1ccncc1 = > 100 µM
CC(C)=CC(=O)OC1C(CO)OC(Oc2cc(O)c3c(=O)cc(-c4ccc(O)c(O)c4)oc3c2)C(OC2OC(C)C(O)C(O)C2O)C1O (stereo not given) = > 100 µM
CCOP(=O)(/C=C/n1ccc(N)nc1=O)OCC = > 100 µM
CC1=C(C(=O)N[C@@H](CC(C)C)C(=O)O)N2C(=O)[C@@H](NC(=O)[C@@H](N)Cc3ccccc3)[C@H]2SC1 = > 100 µM
OCc1ccc(N(Cc2ccc(F)cc2)CC2CC2)cc1Cl = 11.7 µM
COC1(OC)CC(CO)(CNc2nc(N)nc(Cl)c2C=O)C1 = > 100 µM
CC(C(=O)O)c1ccc(-n2nnc3c(=O)[nH][nH]c(=O)c32)cc1 (stereo not given) = > 100 µM
C[CH2][Pb]([CH2]C)([CH2]C)[O]C(=O)COc1ccccc1 = 3.13 µM
C=CC(=O)N1C[C@H](COc2nc(Nc3cnn(C)c3)nc3[nH]cc(Cl)c23)[C@@H](OC)C1 = 24.2 µM

---

- Tested on: HOP-62 NSCLC
- experiment: NCI tumour cell line growth inhibition, 48 h
observedProperty: TGI (µM)

CCN(CC)CCCNc1[nH]ncc2cc3c(nc4ccccc43)c(C)c12 = 42.2
CC(=O)OC1CC2C(C)(C)C(=O)C=C[C@]2(C)C2CC[C@]3(C)C(OCC(=O)[C@H]3c3ccoc3)[C@]12C (stereo not given in full) = 21.6
CCc1cccc(CC)c1NC(=O)C(C#N)C1=C(Cl)C(=O)c2ccccc2C1=O (stereo not given) = 21.4

---

Below, each of the molecules is paired with its reported TGI value.
- Tested on: IGROV1 ovarian
- experiment: NCI tumour cell line growth inhibition, 48 h
observedProperty: TGI

c1ccc2c3ccn4ccc5c6ccccc6[nH]c5c4c-3nc2c1 = 2.83 µM
Cc1cc2c3ccccc3nc2c2cc[nH]c(C)c12 = > 55.9 µM
O=C(c1cccs1)N(C(=S)N1CCN(c2ccccc2)CC1)C1CCCCC1 = > 100 µM
CC(CC(=O)O)(CC(=O)O)c1ccccc1 = > 100 µM
CC1(C)NC(C)(C)/C(=N\O)C(=NO)/C1=N/O = > 100 µM
Cn1ncc2c(Nc3ccc(Cl)cc3)c3ccccc3nc21 = 54.7 µM

---

- System: IGROV1 ovarian
- experiment: NCI tumour cell line growth inhibition, 48 h
Attribute: TGI
observedProperty: TGI (µM)

CCC1(O)CC(OC2CC(N(C)C)C(OC3CC(O)C(OC4CCC(=O)C(C)O4)C(C)O3)C(C)O2)c2c(cc3c(c2O)C(=O)c2c(O)ccc(O)c2C3=O)C1C(=O)OC (stereo not given) = 1.22
COc1ccc2c(c1)NC(=O)CN2c1nc(NC2CC2)nc2ccccc12 = 6.43

---

- Test system: 786-0 renal
- experiment: NCI tumour cell line growth inhibition, 48 h
observedProperty: TGI

N#CC1=C(N)Oc2c(ccc3ccccc23)C1c1cccs1 (configuration not stated) = 11.5 µM
O=C(c1cccs1)N(C(=S)N1CCN(c2ccccc2)CC1)C1CCCCC1 = > 100 µM
CC(=O)OC1Oc2ccccc2-c2oc(=O)c(-c3ccc(F)cc3)cc21 (configuration not stated) = 77.3 µM
O=C1C(=Cc2cccs2)C(=O)N(CCc2ccccc2)S(=O)(=O)N1CCc1ccccc1 = > 50 µM
C(=C1c2ccccc2-c2ccccc21)c1ccncc1 = 22.7 µM
COc1ccc2nc3ccccc3c(NCc3ccc(Cl)cc3)c2c1 = 3.2 µM
O=[N+]([O-])c1ccc(-c2noc(-c3ccccc3)c2C2=NCCN2)cc1 = > 100 µM
Cc1cc(O)c(C=O)c(C)c1CCC1(C)C=Cc2cc(O)ccc2O1 (configuration not stated) = > 100 µM
O=C(Nc1ccc(Cl)cc1)c1cc2c(cc1Cl)Sc1nccn1S2(=O)=O = > 100 µM
CC1(C)c2ccccc2C(C)(C)C(C(=O)Nc2ccccc2)C1C(=O)O (configuration not stated) = > 100 µM
CC1=NN(C(=O)CC(=O)Nc2ccccc2)C(=O)C1N=Nc1ccc(C(=O)O)cc1 (configuration not stated) = > 100 µM
CCCC(=O)c1c(NOC2OCC(OC(C)=O)C(OC(C)=O)C2OC(C)=O)nc(OC)n(C)c1=O (configuration not stated) = > 100 µM
CC(=O)c1c2c(cc3c1CC1(C3)Cc3cc4c(c(C(=O)O)c3C1)CCCC4)CCCC2 (configuration not stated) (tested in a mixture with another compound) = > 100 µM
CCC(=O)OC1CCC2C3CCC(=O)OC3C(C)(CCC(=O)O)CC12C (configuration not stated) = > 100 µM
O=CC1=C(C(=O)OC(c2ccccc2)c2ccccc2)N2C(=O)[C@@H](NC(=O)Cc3cccs3)[C@H]2SC1 = > 100 µM
C/C(=N\NC(=O)c1ccncc1)c1cccc(F)c1 = > 10 µM
O=C(N/N=C/c1c(Cl)cccc1Cl)c1cccnc1Nc1cccc(C(F)(F)F)c1 = 27.9 µM
